molecular target: cloned human 5-HT1A receptors (Homo sapiens, UniProt P08908); test: 35S-GTPγS binding assay, 5-HT1A function; settings: 35S-GTPγS binding to membranes containing cloned human 5-HT1A receptors
Sequence (P08908 whole entry): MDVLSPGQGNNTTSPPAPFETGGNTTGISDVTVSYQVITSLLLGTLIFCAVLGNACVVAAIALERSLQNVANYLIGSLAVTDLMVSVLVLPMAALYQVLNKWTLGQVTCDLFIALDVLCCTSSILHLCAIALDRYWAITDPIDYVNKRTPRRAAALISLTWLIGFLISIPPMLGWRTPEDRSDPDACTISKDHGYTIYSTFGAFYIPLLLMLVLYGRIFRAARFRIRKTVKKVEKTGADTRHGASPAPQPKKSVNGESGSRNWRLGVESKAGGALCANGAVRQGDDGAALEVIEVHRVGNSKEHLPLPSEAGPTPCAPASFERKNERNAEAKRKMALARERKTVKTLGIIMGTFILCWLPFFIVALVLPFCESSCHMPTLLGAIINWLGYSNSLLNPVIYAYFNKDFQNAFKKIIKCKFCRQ
Reported pEC50 is given for each of the following compounds.
In plain terms, pEC50 is the concentration in mol/L turned into minus its base-10 logarithm.

compound	tested_target	pEC50
Fc1ccc2[nH]cc(C3=CCN(C[C@H]4CCc5ccc6ncccc6c5O4)CC3)c2c1	cloned human 5-HT1A receptors (Homo sapiens, UniProt P08908)	7.10

Exercise: Look up pEC50 of Fc1ccc2[nH]cc(C3=CCN(CC4CCc5ccc6ncccc6c5O4)CC3)c2c1 (centres unmarked) and report it.
Key: 6.99
